Molecular target: Calmodulin ( (human brain CaM or …, UniProt P0DP23 1-149))
Assay: SPR
ENDPOINT LABEL: Kd (µM)
Entry rule: numbers only, all in µM.

Lookup: Quote Kd reported for Full-length recombinant human neurogranin with a His-tag at the N-terminus (natural protein) MDCCTENACSKPDDDILDIPLDDPGANAAAAKIQASFRGHMARKKIKSGERGRKGPGPGGPGGAGVARGGAGGGPSGD please.
Found: 19
